- System: Staphylococcus aureus
- protocol: Antibacterial activity against Staphylococcus aureus 358 after 24 hrs by broth microdilution method
- Assay type: functional
- recordedConditions: Staphylococcus aureus, 358, 24 h
A collection of molecules and their measured MIC
// units = µg/mL; emit number, no label

NCC1O[C@H](O[C@H]2[C@@H](O)[C@H](O[C@H]3[C@H](O)[C@@H](N)C[C@@H](N)[C@@H]3O[C@H]3O[C@H](CN)[C@@H](O)[C@H](O)[C@H]3N)O[C@@H]2CO)[C@H](N)[C@@H](O)[C@@H]1O (stereo partly drawn) = 32

Now examine the next entry.
# MIC lookup, item NCC[C@H](O)C(=O)N[C@@H]1C[C@H](N)[C@@H](O[C@H]2O[C@H](CN)[C@@H](O)[C@H](O)[C@H]2O)[C@H](O)[C@H]1O[C@H]1O[C@H](CO)[C@@H](O)[C@H](N)[C@H]1O [AMIKACIN]
256
